system: SAS cells; test: SAS CTG proliferation assay (120 h) (HNSCC, wt amplified); type: cell-based
Quick reference: pIC50 of the listed items.
Please express pIC50 as -log10 of the molar concentration.

Sample answers from the record:
C[C@H](Oc1cc(N2CC[C@@H](O)C2)nc(-c2noc3c2CCC[C@@]32CCCc3sc(N)c(C#N)c32)n1)[C@@H]1CCCN1C: 7.22
C[C@H](Oc1cc(C2=CCOCC2)nc(-c2noc3c2CCC[C@@]32CCCc3sc(N)c(C#N)c32)n1)[C@@H]1CCCN1C: 8.10

Exercise: Report pIC50, nothing else, for this compound: "CO[C@@H]1C[C@@H]([C@H](C)Oc2cc(-c3ccn(C)n3)nc(-c3noc4c3CCC[C@@]43CCCc4sc(N)c(C#N)c43)n2)N(C)C1"
Solution: 7.15

Exercise: Return reported pIC50. Input compound: "[2H]C([2H])([2H])N1C[C@H](F)C[C@H]1[C@H](C)Oc1cc(N2CCN(C)C3(CC3)C2)nc(-c2noc3c2CCC[C@@]32CCCc3sc(N)c(C#N)c32)n1"
Solution: 6.13

Exercise: Tell me measured pIC50 for "C[C@H](Oc1cc(-c2ccn(C3COC3)n2)nc(-c2noc3c2CCC[C@@]32CCCc3sc(N)c(C#N)c32)n1)[C@@H]1CCCN1C" please.
Solution: 7.70

Exercise: Given the compound "C[C@@H]1CN(c2cc(O[C@@H](C)[C@@H]3CCCN3C)nc(-c3noc4c3CCC[C@@]43CCCc4sc(N)c(C#N)c43)n2)C[C@H](C)N1" , write its reported pIC50.
Solution: 6.75

Exercise: Tell us which pIC50 value is on record for "C[C@H](Oc1cc(-n2cc3c(n2)CCN(C)C3)nc(-c2noc3c2CCC[C@@]32CCCc3sc(N)c(C#N)c32)n1)[C@@H]1CCCN1C"
Solution: 6.06

Exercise: Report pIC50 for "C[C@H](O)Cn1ccc(-c2cc(O[C@@H](C)[C@@H]3CCCN3C)nc(-c3noc4c3CCC[C@@]43CCCc4sc(N)c(C#N)c43)n2)n1"
Solution: 7.27

Exercise: Consider the compound "C[C@H](Oc1cc([C@@H]2CCOC2)nc(-c2onc3c2CCC[C@@]32CCCc3sc(N)c(C#N)c32)n1)[C@@H]1CCCN1C" . State its measured pIC50.
Solution: 7.48

Exercise: Fill in reported pIC50 for this entry: "C[C@H](Oc1cc(-n2ccc(C(=O)N[C@@H]3CCOC3)n2)nc(-c2noc3c2CCC[C@@]32CCCc3sc(N)c(C#N)c32)n1)[C@@H]1CCCN1C"
Solution: 7.60

Exercise: Input "CO[C@H]1CCN(C)[C@@H]1[C@H](C)Oc1cc(-n2ccc(C(=O)N[C@@H]3CCOC3)n2)nc(-c2noc3c2CCC[C@@]32CCCc3sc(N)c(C#N)c32)n1" , output reported pIC50.
Solution: 8.10

Exercise: Note down pIC50 recorded for "C[C@H](Oc1cc(C2CCOCC2)nc(-c2noc3c2CCC[C@@]32CCCc3sc(N)c(C#N)c32)n1)[C@@H]1CCCN1C"
Solution: 7.18

Exercise: Fill in reported pIC50 for this entry: "C[C@H](Oc1cc(-c2cn(C3COC3)nn2)nc(-c2noc3c2CCC[C@@]32CCCc3sc(N)c(C#N)c32)n1)[C@@H]1CCCN1C"
Solution: 5.50

Exercise: Give the measured pIC50 for C[C@H](Oc1cc(N2CCN(C)C3(CCOC3)C2)nc(-c2noc3c2CCC[C@@]32CCCc3sc(N)c(C#N)c32)n1)[C@@H]1C[C@@H](F)CN1C (stereo partly drawn)
Solution: 6.79

Exercise: Supply measured pIC50 of "C[C@H](Oc1cc(-c2cncnc2)nc(-c2noc3c2CCC[C@@]32CCCc3sc(N)c(C#N)c32)n1)[C@@H]1CCCN1C" in your reply.
Solution: 6.00

Exercise: Quickly give me recorded pIC50 for "C[C@H](Oc1cc(N2C[C@@H](N(C)C)[C@@H](O)C2)nc(-c2noc3c2CCC[C@@]32CCCc3sc(N)c(C#N)c32)n1)[C@@H]1CCCN1C"
Solution: 5.45

Exercise: Consider the compound "C[C@H](Oc1cc(-n2cc(-c3cccnc3)nn2)nc(-c2noc3c2CCC[C@@]32CCCc3sc(N)c(C#N)c32)n1)[C@@H]1CCCN1C" . State its measured pIC50.
Solution: 6.95

Exercise: Consider the compound "C[C@H](Oc1cc(-c2ccn3ncnc3c2)nc(-c2noc3c2CCC[C@@]32CCCc3sc(N)c(C#N)c32)n1)[C@@H]1CCCN1C" and give its recorded pIC50.
Solution: 6.94

Exercise: Tell me its pIC50 given "C[C@H](Oc1cc(-n2cnc(C(=O)N(C)C)c2)nc(-c2noc3c2CCC[C@@]32CCCc3sc(N)c(C#N)c32)n1)[C@@H]1CCCN1C" as the entry.
Solution: 6.72

Exercise: Give reported pIC50 value for "C[C@H](Oc1cc(-n2ccnc2)nc(-c2noc3c2CCC[C@@]32CCCc3sc(N)c(C#N)c32)n1)[C@@H]1CCCN1C"
Solution: 6.99

Exercise: Please report pIC50 for the following compound: "C[C@H](Oc1cc(-c2cccc(C(N)=O)c2)nc(-c2noc3c2CCC[C@@]32CCCc3sc(N)c(C#N)c32)n1)[C@@H]1CCCN1C"
Solution: 6.69

----------
system: NCI-H2122 cells; test: NCI-H2122 CTG proliferation assay (120 h) (NSCLC, G12C); assay type: cell-based; conditions: Homo sapiens
VALUE_KIND: pIC50
Reminder that pIC50 is minus the log10 of a molar concentration.

Look over these answered cases.
CO[C@@H]1C[C@@H]([C@H](C)Oc2cc(-c3ccn(C)n3)nc(-c3noc4c3CCC[C@@]43CCCc4sc(N)c(C#N)c43)n2)N(C)C1: 5.96
C[C@H](Oc1cc(-n2cc(Cn3ccnc3)nn2)nc(-c2noc3c2CCC[C@@]32CCCc3sc(N)c(C#N)c32)n1)[C@@H]1CCCN1C: 6.18
CC(=O)N1CCN(c2cc(O[C@@H](C)[C@@H]3CCCN3C)nc(-c3noc4c3CCC[C@@]43CCCc4sc(N)c(C#N)c43)n2)CC12CC2: 6.02
Cc1ccc(-c2cc(O[C@@H](C)[C@@H]3CCCN3C)nc(-c3onc4c3CCC[C@@]43CCCc4sc(N)c(C#N)c43)n2)cn1: 5.58

// moving on: another record for pIC50
Exercise: Consider the compound "C[C@H](Oc1cc(-c2cnn(C)c2)nc(-c2noc3c2CCC[C@@]32CCCc3sc(N)c(C#N)c32)n1)[C@@H]1CCCN1C" . State its measured pIC50.
Solution: 5.54

----------
Test system: NCI-H2122 cells
Assay: NCI-H2122 CTG proliferation assay (120 h) (NSCLC, G12C)
Format: cell-based
Settings: Homo sapiens
Method: NCI-H2122 CTG Proliferation Assay (120 h) (NSCLC, G12C) The CTG assay is designed to measure quantitatively the proliferation of NCI-H2122 cells (ATCC CRL-5985), using the CellTiter Glow Assay Kit (Promega G7571). […] Plates are incubated for 120 h, and cell viability is measured using CellTiter-Glo luminescent cell viability reagent (Promega product code G7570). […] IC50 values are determined from viability measurements by non-linear regression using a four parameter model.
VALUE_KIND: IC50

Example entries begin here.
C[C@H](Oc1cc(-n2ccc(-c3cnccn3)n2)nc(-c2noc3c2CCC[C@@]32CCCc3sc(N)c(C#N)c32)n1)[C@@H]1CCCN1C [II-130]: 221 nM
C[C@H](Oc1cc(-c2ccncc2)nc(-c2noc3c2CCC[C@@]32CCCc3sc(N)c(C#N)c32)n1)[C@@H]1CCCN1C [II-78]: 2140 nM
C[C@H](Oc1cc(C2=CCNCC2)nc(-c2noc3c2CCC[C@@]32CCCc3sc(N)c(C#N)c32)n1)[C@@H]1CCCN1C [II-164]: 4580 nM
Cc1cn(-c2cc(O[C@@H](C)[C@@H]3CCCN3C)nc(-c3noc4c3CCC[C@@]43CCCc4sc(N)c(C#N)c43)n2)nn1 [II-106]: 2860 nM

Okay, next one:
Exercise: Supply reported IC50 belonging to this compound: C[C@H](Oc1cc(N2CCC(N(C)C)CC2)nc(-c2noc3c2CCC[C@@]32CCCc3sc(N)c(C#N)c32)n1)[C@@H]1CCCN1C [II-48]
Solution: 3100 nM

----------
system: KRAS G12C-dependent Ba/F3 cells; experiment: Ba/F3 proliferation assay, KRAS G12C; type: cell-based; conditions: Mus musculus, BaF3, 72 h, AlamarBlue
IC50 strictly less than 80 nM = satisfied. Otherwise not satisfied.

C[C@H](Oc1cc(-n2ccc(Br)n2)nc(-c2noc3c2CCC[C@@]32CCCc3sc(N)c(C#N)c32)n1)[C@@H]1CCCN1C: satisfied
Cc1cc(-c2onc3c2CCC[C@@]32CCCc3sc(N)c(C#N)c32)nc(N2CCCNC[C@@H]2C)n1: not satisfied
CO[C@H]1CCN(C)[C@@H]1[C@H](C)Oc1cc(-n2ccc(C(=O)N[C@@H]3CCOC3)n2)nc(-c2onc3c2CCC[C@@]32CCCc3sc(N)c(C#N)c32)n1: satisfied

Please examine the following record next.
Exercise: Does "C[C@H](Oc1cc(N2CCN[C@@H](C)C2)nc(-c2noc3c2CCC[C@@]32CCCc3sc(N)c(C#N)c32)n1)[C@@H]1CCCN1C" have IC50 strictly under 80 nM?
Solution: not satisfied
